Test system: SDMA in HAP1 MTAP-deleted (MTAP-null) cell line (PRMT5 inhibition)
Assay: SDMA in-cell western assay, HAP1 MTAP-deleted cell line
Conditions: Homo sapiens, HAP1, read-out: Hap1 MTAP deleted IC50
pIC50: −log10 of the molar value.
Measured pIC50 of individual entries

# compound, pIC50
measured = [
    ("Nc1ncc(NC(=O)C(=O)N(Cc2ccc(C(F)(F)F)cn2)[C@@H]2CCC[C@H]2OC(F)F)cc1C1CC1", "7.30 to 8.30"),
    ("CCN(C(=O)C(=O)Nc1cnc(N)c2cn[nH]c12)[C@@H](C)c1ccc(C(F)(F)C(F)(F)F)cc1C", "7.30 to 8.30"),
    ("Cc1ccccc1CN(CC1CC1)C(=O)C(=O)Nc1cnc(N)c2cn[nH]c12", "> 8.30"),
    ("Cn1nccc1CN(Cc1ccccc1)C(=O)C(=O)Nc1cnc(N)c2cn[nH]c12", "> 8.30"),
    ("Nc1ncc(NC(=O)C(=O)N(Cc2ccccc2)Cc2ccncc2)c2[nH]ncc12", "> 8.30"),
    ("NC(=O)c1cncc(NC(=O)C(=O)N(Cc2ccc(C(F)(F)F)cn2)[C@@H]2CCC[C@H]2OC(F)F)c1", "7.30 to 8.30"),
    ("CCC(C)CN(Cc1ccccn1)C(=O)C(=O)Nc1cnc(N)c2cn[nH]c12 (centres unmarked)", "> 8.30"),
    ("CCc1cc(NC(=O)C(=O)N(Cc2ccc(C(F)(F)F)cn2)[C@@H]2CCC[C@H]2OC(F)F)cnc1N", "7.30 to 8.30"),
    ("O=C(Nc1ccn2ccnc2c1)C(=O)N(Cc1ccc(C(F)(F)F)cn1)[C@@H]1CCc2ccccc21", "7.30 to 8.30"),
    ("Cc1ccc(CN(Cc2ccccc2)C(=O)C(=O)Nc2cnc(N)c3cn[nH]c23)c(C)c1", "> 8.30"),
    ("Nc1ncc(NC(=O)C(=O)N(Cc2ccccn2)Cc2ccc(F)cc2Cl)c2[nH]ncc12", "> 8.30"),
    ("CCN(C(=O)C(=O)Nc1cnc(N)c2cn[nH]c12)[C@H](C)c1ccc(C(F)(F)F)cc1C", "> 8.30"),
    ("Nc1ncc(NC(=O)C(=O)N(Cc2ccccc2)Cc2ccccn2)c2[nH]ncc12", "> 8.30"),
    ("Nc1ncc(NC(=O)C(=O)N(Cc2ccccc2)Cc2ccccc2C(F)(F)F)c2[nH]ncc12", "> 8.30"),
    ("Nc1ncc(NC(=O)C(=O)N(Cc2ccccc2)CC2CCCCO2)c2[nH]ncc12 (centres unmarked)", "> 8.30"),
    ("Cc1ccc(CN(Cc2ccccn2)C(=O)C(=O)Nc2cnc(N)c3cn[nH]c23)cc1", "> 8.30"),
    ("Nc1ncc(NC(=O)C(=O)N(Cc2ccc(C(F)(F)F)cn2)Cc2ccccc2C(F)(F)F)c2[nH]ncc12", "7.30 to 8.30"),
]

Values were extracted from patent US20250136594A1.
